# Test system: Enterobacter cloacae
# EXPERIMENT_SUMMARY: Antimicrobial activity against Enterobacter cloacae ATCC 23355 by Etest method in presence of 4 ug/ml NAB741
# Assay type: functional
# note: boundary value 0.5 mg/L maps to FALSE; MIC below it maps to TRUE

Reference set, count: 3
>>> group_label("C/C(=C\\C(=O)OCCCCCCCCC(=O)O)C[C@@H]1OC[C@H](C[C@@H]2O[C@H]2[C@@H](C)[C@H](C)O)[C@@H](O)[C@H]1O [MUPIROCIN]")
"TRUE"
>>> group_label("CC(=O)O[C@H]1C[C@@]2(C)[C@@H](C[C@@H](O)[C@H]3[C@@]4(C)CC[C@@H](O)[C@@H](C)[C@@H]4CC[C@@]32C)/C1=C(\\CCC=C(C)C)C(=O)O [FUSIDIC ACID]")
"FALSE"
>>> group_label("CO[C@H]1/C=C/O[C@@]2(C)Oc3c(C)c(O)c4c(O)c(c(/C=N/N5CCN(C)CC5)c(O)c4c3C2=O)NC(=O)/C(C)=C\\C=C\\[C@H](C)[C@H](O)[C@@H](C)[C@@H](O)[C@@H](C)[C@H](OC(C)=O)[C@@H]1C [RIFAMPIN]")
"TRUE"

QUERY: Decide: MIC of CN[C@H](CC(C)C)C(=O)N[C@H]1C(=O)N[C@@H](CC(N)=O)C(=O)N[C@H]2C(=O)N[C@H]3C(=O)N[C@H](C(=O)N[C@H](C(=O)O)c4cc(O)cc(O)c4-c4cc3ccc4O)[C@H](O)c3ccc(c(Cl)c3)Oc3cc2cc(c3O[C@@H]2O[C@H](CO)[C@@H](O)[C@H](O)[C@H]2O[C@H]2C[C@](C)(N)[C@H](O)[C@H](C)O2)Oc2ccc(cc2Cl)[C@H]1O [VANCOMYCIN] strictly below 0.5 mg/L?
RESULT: FALSE

QUERY: Decide: MIC of CC[C@H]1OC(=O)[C@H](C)[C@@H](O[C@H]2C[C@@](C)(OC)[C@@H](O)[C@H](C)O2)[C@H](C)[C@@H](O[C@@H]2O[C@H](C)C[C@H](N(C)C)[C@H]2O)[C@](C)(O)C[C@@H](C)CN(C)[C@H](C)[C@@H](O)[C@]1(C)O [AZITHROMYCIN] strictly below 0.5 mg/L?
RESULT: TRUE

Data origin: ChEMBL document CHEMBL1629695
